- test: Protein binding in human plasma
- Format: ADME, cell-free
- measurement.conditions: read-out: PPB (converted)
measurement.label: fraction unbound
// return just the number, without any unit appended

Ask: fraction unbound for `COc1ncc(OC)c2c(C(=O)C(=O)N3CCN(C(=O)c4ccccc4)CC3)c[nH]c12` ?
Result: 0.05

* * *

- Tested on: Canis familiaris
- test: Oral bioavailability in beagle dog assessed as BMS-626529 formation at 5 mg/kg
- Assay type: ADME, organism-based, Canis lupus familiaris
- measurement.conditions: in vivo
measurement.label: bioavailability

Ask: Would you kindly share the measured bioavailability for `COc1cnc(-n2cnc(C)n2)c2[nH]cc(C(=O)C(=O)N3CCN(C(=O)c4ccccc4)CC3)c12` ?
Result: 80 to 122%

* * *

- target.system: Envelope glycoprotein gp160 (Human immunodeficiency virus 1, UniProt Q6QLK5)
- Sequence (Q6QLK5 whole entry): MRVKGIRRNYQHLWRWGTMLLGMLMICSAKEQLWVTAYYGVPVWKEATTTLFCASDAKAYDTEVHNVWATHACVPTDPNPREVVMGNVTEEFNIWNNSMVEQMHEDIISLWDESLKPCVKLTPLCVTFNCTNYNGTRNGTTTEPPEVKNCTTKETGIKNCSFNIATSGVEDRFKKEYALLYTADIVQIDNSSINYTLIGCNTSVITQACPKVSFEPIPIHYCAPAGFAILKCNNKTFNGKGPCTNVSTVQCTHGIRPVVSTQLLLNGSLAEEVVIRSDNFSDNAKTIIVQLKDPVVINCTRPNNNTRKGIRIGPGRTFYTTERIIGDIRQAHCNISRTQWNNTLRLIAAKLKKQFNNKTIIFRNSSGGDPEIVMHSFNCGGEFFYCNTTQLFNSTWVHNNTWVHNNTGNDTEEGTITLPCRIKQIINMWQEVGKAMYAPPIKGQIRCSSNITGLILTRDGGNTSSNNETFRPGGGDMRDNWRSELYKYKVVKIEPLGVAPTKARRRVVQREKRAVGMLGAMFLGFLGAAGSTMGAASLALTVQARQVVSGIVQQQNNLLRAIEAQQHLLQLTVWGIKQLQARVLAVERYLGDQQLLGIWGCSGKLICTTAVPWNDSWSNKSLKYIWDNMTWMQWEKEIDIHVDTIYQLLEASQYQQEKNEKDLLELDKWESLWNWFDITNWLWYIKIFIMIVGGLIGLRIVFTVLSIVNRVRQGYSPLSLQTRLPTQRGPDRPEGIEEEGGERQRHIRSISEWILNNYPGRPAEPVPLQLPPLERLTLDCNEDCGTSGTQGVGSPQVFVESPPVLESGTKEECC
measurement.label: pKd
Field pKd (float): negative decimal logarithm of the concentration in molar.

Ask: Form: Entry = `COc1ncc(OC)c2c(C(=O)C(=O)N3CCN(C(=O)c4ccccc4)CC3)c[nH]c12` | System = Envelope glycoprotein gp160 (Human immunodeficiency virus 1, UniProt Q6QLK5) | pKd = ____
Result: 7.72

* * *

// reported half-life per item
- test: Half life in rat liver microsomes
- Format: ADME, microsome

Here's what some known entries look like.
COCc1ncn(-c2ncc(OC)c3c(C(=O)C(=O)N4CCN(C(=O)c5ccccc5)[C@H](C)C4)c[nH]c23)n1 = 100 min
COc1cnc(-c2cncnc2)c2[nH]cc(C(=O)C(=O)N3CCN(C(=O)c4ccccc4)CC3)c12 = > 100 min
O=C(C(=O)N1CCN(C(=O)c2ccccc2)CC1)c1c[nH]c2ccccc12 = > 100 min

# context switch: different molecule, same half-life
Ask: Fill in: half-life of `COc1cnc(-n2cccn2)c2[nH]cc(C(=O)C(=O)N3CCN(C(=O)c4ccccc4)CC3)c12` is ___
Result: > 100 min

* * *

- test: Half life in Sprague-Dawley rat at 1 mg/kg, iv
- Type: ADME, organism-based
- measurement.conditions: in vivo
measurement.label: half-life (h)
Respond numerically; units are h and should not be typed.

Example results:
COc1cnc(-c2cnccn2)c2[nH]cc(C(=O)C(=O)N3CCN(C(=O)c4ccccn4)[C@H](C)C3)c12 = 2.4
COc1cnc(-n2ccc(CO)n2)c2[nH]cc(C(=O)C(=O)N3CCN(C(=O)c4ccccc4)[C@H](C)C3)c12 = 2.9
COc1cnc(-n2ccc(C)n2)c2[nH]cc(C(=O)C(=O)N3CCN(C(=O)c4ccccc4)[C@H](C)C3)c12 = 0.56

Would you kindly look at the next entry?
Ask: What does the data say about its half-life? Entry: `CCc1ncn(-c2ncc(OC)c3c(C(=O)C(=O)N4CCN(C(=O)c5ccccc5)CC4)c[nH]c23)n1`
Result: 3.3

* * *

- System: Cynomolgus monkey
- test: Oral bioavailability in cynomolgus monkey assessed as BMS-626529 formation at 5 mg/kg administered via gavage
- Format: ADME, organism-based, Macaca fascicularis
- measurement.conditions: in vivo
measurement.label: bioavailability

Ask: // query bioavailability value for entry `COc1cnc(-n2cnc(C)n2)c2[nH]cc(C(=O)C(=O)N3CCN(C(=O)c4ccccc4)CC3)c12`
Result: 80 to 122%

* * *

- test: Half life in human liver microsomes
- Format: ADME, microsome
Listing of recorded half-life by entry.
Provide the reading as a plain figure in min.

Guide cases for half-life, answers given:
COc1cnc(-c2ccccn2)c2[nH]cc(C(=O)C(=O)N3CCN(C(=O)c4ccccc4)CC3)c12 = 15
COc1cccc(-c2ncc(OC)c3c(C(=O)C(=O)N4CCN(C(=O)c5ccccc5)CC4)c[nH]c23)n1 = 8
COc1cnc(-c2cnc(N)s2)c2[nH]cc(C(=O)C(=O)N3CCN(C(=O)c4ccccc4)CC3)c12 = 26
COc1cnc(-c2cccnn2)c2[nH]cc(C(=O)C(=O)N3CCN(C(=O)c4ccccc4)CC3)c12 = 29
COc1cnc(-c2ccncn2)c2[nH]cc(C(=O)C(=O)N3CCN(C(=O)c4ccccc4)CC3)c12 = 15
CNc1cnc(-c2ncc(OC)c3c(C(=O)C(=O)N4CCN(C(=O)c5ccccc5)CC4)c[nH]c23)cn1 = 21
CCOc1ncc(-c2ncc(OC)c3c(C(=O)C(=O)N4CCN(C(=O)c5ccccc5)CC4)c[nH]c23)s1 = 17
COc1cnc(-c2cccnc2)c2[nH]cc(C(=O)C(=O)N3CCN(C(=O)c4ccccc4)CC3)c12 = 41
COc1cnc(-c2cncs2)c2[nH]cc(C(=O)C(=O)N3CCN(C(=O)c4ccccc4)CC3)c12 = 19
COc1cnc(-c2ccco2)c2[nH]cc(C(=O)C(=O)N3CCN(C(=O)c4ccccc4)CC3)c12 = 19

Ask: Endpoint output: half-life of `COc1cnc(-c2cccs2)c2[nH]cc(C(=O)C(=O)N3CCN(C(=O)c4ccccc4)CC3)c12` . Value?
Result: 18

Ask: For the compound `COc1cnc(-c2ccoc2)c2[nH]cc(C(=O)C(=O)N3CCN(C(=O)c4ccccc4)CC3)c12` , what half-life is on record?
Result: 29
